Every entry's value here was drawn from patent US20190248902A1.

- Tested System: T1, recombinant, soluble human ASGR-1 (human, UniProt P07306 62-291)
- T1 construct: biotinylated in the binning assay; also called soluble huASGR-1; Soluble ASGR-1 (Amgen)
- T1 sequence: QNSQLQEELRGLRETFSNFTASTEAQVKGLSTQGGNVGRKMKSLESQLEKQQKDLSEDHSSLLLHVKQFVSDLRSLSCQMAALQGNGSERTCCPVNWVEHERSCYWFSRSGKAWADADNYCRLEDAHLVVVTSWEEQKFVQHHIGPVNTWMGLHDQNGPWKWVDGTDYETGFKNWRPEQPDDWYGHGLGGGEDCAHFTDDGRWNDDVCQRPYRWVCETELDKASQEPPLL
- Assay Remarks: Octet BLI dissociation, pH 7.4 minus calcium
Here, each record is paired with measured % Change Compared to pH 7.4 + Calcium data.
Only the number, expressed in %, is required.

Example cases with answers are listed next.
192C10 (antibody, V domains shown, hybridoma mAb) VH: QVQLVESGGGVVQPGRSLRLSCASSGFTFRNYGMHWVRQAPGKGLKWVAVIWFDGSNDYYADSVKGRFTISRDNSKNTLSLQMNSLRAEDTAVYYCARDRSVGYDGLDVWGQGTTVTVSS VL: DIQMTQSPSSLSASVGDRVTITCRASQGIGKYLAWFQQKPGKAPKSLIYAASSLQSGVPSKFSGSGSGTDFTLTISSLQPDDFATYYCQRYDTYPFTFGPGTKVDFK; -1
191G10 (antibody, V domains shown, hybridoma mAb) VH: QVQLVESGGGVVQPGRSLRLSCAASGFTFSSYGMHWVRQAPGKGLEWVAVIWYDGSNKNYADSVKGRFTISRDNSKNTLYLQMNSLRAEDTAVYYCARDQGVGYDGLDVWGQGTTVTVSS VL: DIQMTQSPSSLSASVGDRVTITCRTSQGIGKYLAWFQQKPGKAPKSLLYKVSSLQSGVPSKFSGSGSGTDFTLTISSLQPEDFATYYCQQYMTYPLTFGGGTKVEIK; 0
208A2 (antibody, V domains shown, hybridoma mAb) VH: QVQLQESGPGLVKPSETLSLNCTVSGGSIRSYYWSWIRQPAGKGLEWIGRIYTSGSTDYNPSLKSRITMSVDTSKNQFSLKLSSVTAADTAVYYCARGFGDWDYWGQGTLVTVSS VL: DIQMTQSPSSLSASVGDRVTITCRTSQGIRNDLGWYQQQPGKTPKRLIYAASSLLSGVPSRFSGSRSGTDFTLTISSLQPEDFATYYCLQYNSYPPTFGQGTRLEIK; -4
190H9 (antibody, V domains shown, hybridoma mAb) VH: QVQLVESGGGVVQPGRSLRLSCAASGFTFRNYGMHWVRQAPGKGLEWVAVIWFDGSNDYYADSVKGRFTISRDNSKNTLSLQMNSLRAEDTAVYYCARDRSVGYDGLDVWGQGTTVTVSS VL: DIQMTQSPSSLSASVGDRVTITCRASQGIGKYLAWFQQKPGKALKSLIYAASSLQSGVPSKFSGSGSGTDFTLTISSLQPDDFATYYCQRYDTYPFTFGPGTKVDIK; -1

Now turn to the next binder.
// recorded % Change Compared to pH 7.4 + Calcium for 27E7 (antibody, V domains shown, hybridoma mAb) VH: QVQLVESGGGVVQPGRSLRLSCAASGFTFSSYGMHWVRQAPGKGLEWVAVIWYDGSNKYYADSVKGRFTISRDNSKNTLYLQMNSLRAEDTAVYYCAREDSYCSSTSCPYYYYYGMDVWGQGTTVTVSS VL: SYELTQPPSVSVSPGQTASITCSGDKLGNKYACWYQQKPGQSPVEVIYQDSKRPLGIPERFSGSNSGNTATLTISGTQAMDEADYYCQAWDSSTVVFGGGTKLTVL : 20
